IC50 listing for selected molecules.
Biological target: HCV polymerase (NS5B) type 1b (Hepatitis C virus genotype 1b)
Construct: a region encoding NS5B (J Virol 1991 March, 65(3), 1105-13, 544 amino acids after deletion of 47 amino acids on the C-terminal); 6xHis (C); made in house; host or cells: Escherichia coli
Experiment: Assay of enzyme (HCV polymerase) inhibitory activity, type 1b enzyme
Type: biochemical, HCV BK strain (type 1b)
Conditions: HCV polymerase inhibitory activity (IC50), 1b, type 1b enzyme 0.5 μg/ml, 25° C., 60 min

These solved cases illustrate the format of a correct answer.
CCCCc1ccc(S(=O)(=O)N2CCN(C(C)=O)CC2C(=O)NCc2ccc(C(F)(F)F)cc2)cc1 (centres unmarked) | > 1 µM
CCCc1ccc(CNC(=O)[C@H]2CN(C(=O)Cc3ccncc3)CCN2S(=O)(=O)c2ccc(OC(F)(F)F)cc2)cc1 | < 0.1 µM
CC(=O)c1ccc(S(=O)(=O)N2CCN(C(C)=O)CC2C(=O)NCc2ccc(C(F)(F)F)cc2)cc1 (centres unmarked) | > 1 µM

Exercise: Requested read-out IC50, target or system HCV polymerase (NS5B) type 1b (Hepatitis C virus genotype 1b), entry "CC(=O)N1CCN(S(=O)(=O)c2ccc(C(C)C)cc2)[C@@H](C(=O)NCCN2CCOCC2)C1"
Solution: > 1 µM

Exercise: Requested read-out IC50, target or system HCV polymerase (NS5B) type 1b (Hepatitis C virus genotype 1b), entry "CCC(F)(F)c1ccc(CNC(=O)[C@H]2CN(C(=O)c3cscn3)CCN2S(=O)(=O)c2ccc(OC(F)(F)F)cc2)cc1"
Solution: 0.1 to 1 µM

----------
IC50 listing for selected compounds.
Target: HCV polymerase (NS5B) type 1a (Hepatitis C virus genotype 1a)
Construct: made in house; host or cells: Escherichia coli (by the 'similar method' of the 1b enzyme)
Test: Assay of enzyme (HCV polymerase) inhibitory activity, type 1a enzyme
Assay type: biochemical, HCV type 1a (cloned from the blood of patients)
Conditions: HCV polymerase inhibitory activity (IC50), 1a, type 1a enzyme 1.5 μg/ml, 25° C., 60 min

CN(C)c1ccc(CNC(=O)C2CN(C(=O)Cc3ccccn3)CCN2S(=O)(=O)c2ccc(I)cc2)cc1 (stereo not shown) [Example 153] | > 1000 nM

Exercise: For CC(C)c1ccc(S(=O)(=O)N2CCN(S(C)(=O)=O)CC2C(=O)NCc2ccc(C(F)(F)F)cc2)cc1 (stereo not shown) [Example 17] , what is its reported IC50?
Solution: > 1000 nM

Exercise: For CCCc1ccc(S(=O)(=O)N2CCN(C(C)=O)C[C@@H]2C(=O)NCc2ccc(C(C)C)cc2)c(F)c1 [Example 429] , what is its reported IC50?
Solution: < 100 nM

Exercise: For CCOC(=O)c1sc(N2CCN(S(=O)(=O)c3ccc(OC(F)(F)F)cc3)[C@@H](C(=O)NCc3ccc(C(C)(C)C)cc3)C2)nc1N [Example 582] , what is its reported IC50?
Solution: 100 to 1000 nM

Exercise: For CCC(F)(F)c1ccc(CNC(=O)[C@H]2CN(c3cc(N)ncn3)CCN2S(=O)(=O)c2ccc(OC(F)(F)F)cc2)cc1 [Example 605] , what is its reported IC50?
Solution: < 100 nM

Exercise: For CCC(F)(F)c1ccc(CNC(=O)[C@H]2CN(C(=O)Nc3cc(C)no3)CCN2S(=O)(=O)c2ccc(OC(F)(F)F)cc2)cc1 [Example 528] , what is its reported IC50?
Solution: 100 to 1000 nM

Exercise: For CC(C)c1ccc(S(=O)(=O)N2CCN(c3nc4c(s3)CCCC4)CC2C(=O)NCc2ccc(C(F)(F)F)cc2)cc1 (stereo not shown) [Example 156] , what is its reported IC50?
Solution: > 1000 nM

----------
Target: HCV polymerase (NS5B) type 1b (Hepatitis C virus genotype 1b, UniProt P26663)
Construct: a region encoding NS5B (J Virol 1991 March, 65(3), 1105-13, 544 amino acids after deletion of 47 amino acids on the C-terminal); 6xHis (C); made in house; host or cells: Escherichia coli
Assay: Assay of enzyme (HCV polymerase) inhibitory activity, type 1b enzyme
Format: biochemical, HCV BK strain (type 1b)
Settings: HCV polymerase inhibitory activity IC50, 1b, type 1b enzyme
pIC50: −log10 of the molar value. Counter-ions that a name gives are not always drawn.
Readout Kind: pIC50

These solved cases illustrate the format of a correct answer.
O=C(NCc1ccc(OC(F)(F)F)cc1)[C@H]1CN(c2ccc(=O)[nH]c2)CCN1S(=O)(=O)c1ccc(OC(F)(F)F)cc1 [Example 924, hydrochloride] | 6.00 to 7.00
O=C(NCc1ccc(OC(F)F)c(F)c1)[C@H]1CN(c2nc3nc(C(F)(F)F)ncc3s2)CCN1S(=O)(=O)c1ccc(OC(F)(F)F)cc1 [Example 1061] | > 7.00
CCCc1ccc(CNC(=O)[C@H]2CN(c3nc4cn[nH]c(=O)c4s3)CCN2S(=O)(=O)c2ccc(C(F)(F)F)cc2)cc1 [Example 820] | > 7.00
CCCc1ccc(CNC(=O)[C@H]2CN(C(=O)Nc3ccccc3O)CCN2S(=O)(=O)c2ccc(OC(F)(F)F)cc2)cc1 [Example 834] | 6.00 to 7.00
O=C(NCc1ccc(OC(F)F)c(F)c1)[C@H]1CN(c2nc3nc(C4CC4)ncc3s2)CCN1S(=O)(=O)c1ccc(C(F)(F)F)cc1 [Example 1074] | > 7.00

Then this compound:
Exercise: For CCCc1ccc(CNC(=O)[C@H]2CN(c3cnc4cnccc4n3)CCN2S(=O)(=O)c2ccc(-c3cccc(O)c3)cc2)cc1 [Example 778] , what is its reported pIC50?
Solution: > 7.00

----------
Biological target: HCV polymerase (NS5B) type 1b (Hepatitis C virus genotype 1b)
Construct: a region encoding NS5B (J Virol 1991 March, 65(3), 1105-13, 544 amino acids after deletion of 47 amino acids on the C-terminal); 6xHis (C); made in house; host or cells: Escherichia coli
Test: Assay of enzyme (HCV polymerase) inhibitory activity, type 1b enzyme
Format: biochemical, HCV BK strain (type 1b)
Details: HCV polymerase inhibitory activity (IC50), 1b, type 1b enzyme 0.5 μg/ml, 25° C., 60 min
Experimental: The evaluation of the HCV polymerase inhibitory activity of the compound of the present invention is explained in the following. This polymerase is an enzyme coded for by the non-structural protein region called NS5B on the genome RNA of HCV. i) Preparation of Enzyme (HCV Polymerase) […] The HCV polymerase inhibitory activity (IC50) of the compound of the present invention was calculated from the values of radioactivity of the enzyme reaction with and without the test substance. […]
Readout Kind: IC50

CCCc1ccc(CNC(=O)[C@H]2CN(c3ccc(O)nn3)CCN2S(=O)(=O)c2ccc(OC(F)(F)F)cc2)cc1 | < 100 nM
CCC(F)(F)c1ccc(CNC(=O)[C@H]2CN(c3nc(NC(C)=O)ns3)CCN2S(=O)(=O)c2ccc(OC(F)(F)F)cc2)cc1 | < 100 nM
CC(=O)N1CCN(S(=O)(=O)c2ccc(C(C)C)cc2)[C@@H](C(=O)NCc2ccc(-c3ccoc3)cc2)C1 | 100 to 1000 nM

Then this compound:
Exercise: For "CC(C)(C)c1ccc(CNC(=O)[C@H]2CN(c3nc4nn[nH]c(=O)c4s3)CCN2S(=O)(=O)c2ccc(OC(F)(F)F)cc2)cc1" , what is its reported IC50?
Solution: < 100 nM

----------
Target: HCV polymerase (NS5B) type 1b (Hepatitis C virus genotype 1b, UniProt P26663)
Construct: a region encoding NS5B (J Virol 1991 March, 65(3), 1105-13, 544 amino acids after deletion of 47 amino acids on the C-terminal); 6xHis (C); made in house; host or cells: Escherichia coli
Test: Assay of enzyme (HCV polymerase) inhibitory activity, type 1b enzyme
Format: biochemical, HCV BK strain (type 1b)
Conditions: HCV polymerase inhibitory activity (IC50), 1b, type 1b enzyme 0.5 μg/ml, 25° C., 60 min
IC50 listing for selected compounds.

These solved cases illustrate the format of a correct answer.
CC(=O)N1CCN(S(=O)(=O)c2ccc(S(=O)(=O)c3ccccc3)s2)C(C(=O)NCc2ccc(C(F)(F)F)cc2)C1 (centres unmarked) | > 1 µM
CCc1ccc(CNC(=O)C2CN(C(C)=O)CCN2S(=O)(=O)c2ccc(C(C)C)cc2)cc1 (centres unmarked) | 0.1 to 1 µM
CCCc1ccc(CNC(=O)[C@H]2CN(c3cnc(C(=O)O)cn3)CCN2S(=O)(=O)c2ccc(CC)cc2)c(Cl)c1 | < 0.1 µM
COc1ccc(CCNC(=O)[C@H]2CN(C(C)=O)CCN2S(=O)(=O)c2ccc(C(C)C)cc2)cc1 | > 1 µM
CC(=O)N1CCN(S(=O)(=O)c2ccc(-c3ccc(Cl)cc3)s2)C(C(=O)NCc2ccc(C(F)(F)F)cc2)C1 (centres unmarked) | > 1 µM

Exercise: For "CC(C)c1ccc(CNC(=O)[C@H]2CN(c3nc([N+](=O)[O-])n[nH]3)CCN2S(=O)(=O)c2ccc(C(F)(F)F)cc2)cc1" , what is its reported IC50?
Solution: 0.1 to 1 µM

Exercise: For "CCC(F)(F)c1ccc(CNC(=O)[C@H]2CN(C(=O)Nc3nnc(C(=O)N4CCOCC4)s3)CCN2S(=O)(=O)c2ccc(OC(F)(F)F)cc2)cc1" , what is its reported IC50?
Solution: > 1 µM

Exercise: For "CCC(F)(F)c1ccc(CNC(=O)[C@H]2CN(c3ccn4ncnc4n3)CCN2S(=O)(=O)c2ccc(OC(F)(F)F)cc2)cc1" , what is its reported IC50?
Solution: < 0.1 µM
